- assay_summary: Conventional water solubility test
- Type: physicochemical
- Description: Conventional water solubility test has been conducted to give the following results: […]
property: solubility

>>> result("COc1cc2c(Oc3ccc4[nH]c(C)cc4c3F)ccnc2cc1OCC1(N)CC1.O=C(O)CCC(=O)O")
"100 µg/mL"

Answer with the recorded solubility for the molecule listed here: COc1cc2c(Oc3ccc4[nH]c(C)cc4c3F)ccnc2cc1OCC1(N)CC1.O=C(O)/C=C\C(=O)O.O=C(O)/C=C\C(=O)O
500 µg/mL

----------
- Tested on: PANC-1 (pancreatic)
- assay_summary: In vitro MTT (proliferation) assay
- Format: cell-based
- particulars: Homo sapiens, PANC-1, MTT (proliferation) assay, PANC-1 cancer cell line
property: IC50 (µM)
Respond with the bare value in µM.

Answer with the recorded IC50 for the molecule listed here: COc1cc2c(Oc3ccc4[nH]c(C)cc4c3F)ccnc2cc1OCC1(N)CC1
1.58
